# System: MCF7
# TEST NAME: percentage of EdU-negative (G0-arrested) nuclei per well, 72 h; higher = more G0 arrest;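 note: secreted proteins added to cultured cells, EdU pulse at the end, nuclei found by Hoechst imaging, EdU status from nuclear versus surrounding ring intensity ratio, PBS as neutral control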
# TEST CONTEXT: protein concentration 0.225 µM; reference: sequence is the full UniProt precursor, the tested protein was the secreted form or ectodomain
EXPERIMENTAL READOUT: percentage of EdU-negative (%)
Answer format: numeric, % implied, no suffix.

Solved cases below.
INSERT INTO results (sequence, experimental_readout, value_measured) VALUES
  ('MEPLRLLILLFVTELSGAHNTTVFQGVAGQSLQVSCPYDSMKHWGRRKAWCRQLGEKGPCQRVVSTHNLWLLSFLRRWNGSTAITDDTLGGTLTITLRNLQPHDAGLYQCQSLHGSEADTLRKVLVEVLADPLDHRDAGDLWFPGESESFEDAHVEHSISRSLLEGEIPFPPTSILLLLACIFLIKILAASALWAAAWHGQKPGTHPPSELDCGHDPGYQLQTLPGLRDT [Q9NZC2]', 'percentage of EdU-negative', 29.3),
  ('MCVGARRLGRGPCAALLLLGLGLSTVTGLHCVGDTYPSNDRCCHECRPGNGMVSRCSRSQNTVCRPCGPGFYNDVVSSKPCKPCTWCNLRSGSERKQLCTATQDTVCRCRAGTQPLDSYKPGVDCAPCPPGHFSPGDNQACKPWTNCTLAGKHTLQPASNSSDAICEDRDPPATQPQETQGPPARPITVQPTEAWPRTSQGPSTRPVEVPGGRAVAAILGLGLVLGLLGPLAILLALYLLRRDQRLPPDAHKPPGGGSFRTPIQEEQADAHSTLAKI', 'percentage of EdU-negative', 26),
  ('MAAFPHKIIFFLVCSTLTHVAFSGIFNKRDFTRWPKPRCKMYIPLDPDYNADCPNVTAPVCASNGHTFQNECFFCVEQREFHYRIKFEKYGKCD [Q1W4C9]', 'percentage of EdU-negative', 27.7),
  ('MGFNLTFHLSYKFRLLLLLTLCLTVVGWATSNYFVGAIQEIPKAKEFMANFHKTLILGKGKTLTNEASTKKVELDNCPSVSPYLRGQSKLIFKPDLTLEEVQAENPKVSRGRYRPQECKALQRVAILVPHRNREKHLMYLLEHLHPFLQRQQLDYGIYVIHQAEGKKFNRAKLLNVGYLEALKEENWDCFIFHDVDLVPENDFNLYKCEEHPKHLVVGRNSTGYRLRYSGYFGGVTALSREQFFKVNGFSNNYWGWGGEDDDLRLRVELQRMKISRPLPEVGKYTMVFHTRDKGNEVNAERMKLLHQVSRVWRTDGLSSCSYKLVSVEHNPLYINITVDFWFGA', 'percentage of EdU-negative', 27.9),
  ('MARRSRHRLLLLLLRYLVVALGYHKAYGFSAPKDQQVVTAVEYQEAILACKTPKKTVSSRLEWKKLGRSVSFVYYQQTLQGDFKNRAEMIDFNIRIKNVTRSDAGKYRCEVSAPSEQGQNLEEDTVTLEVLVAPAVPSCEVPSSALSGTVVELRCQDKEGNPAPEYTWFKDGIRLLENPRLGSQSTNSSYTMNTKTGTLQFNTVSKLDTGEYSCEARNSVGYRRCPGKRMQVDDLNISGIIAAVVVVALVISVCGLGVCYAQRKGYFSKETSFQKSNSSSKATTMSENDFKHTKSFII', 'percentage of EdU-negative', 25.4);

Report percentage of EdU-negative for `MMQKLLKCSRLVLALALILVLESSVQGYPTRRARYQWVRCNPDSNSANCLEEKGPMFELLPGESNKIPRLRTDLFPKTRIQDLNRIFPLSEDYSGSGFGSGSGSGSGSGSGFLTEMEQDYQLVDESDAFHDNLRSLDRNLPSDSQDLGQHGLEEDFML` please. 26

Do the same for MKLLFPIFASLMLQYQVNTEFIGLRRCLMGLGRCRDHCNVDEKEIQKCKMKKCCVGPKVVKLIKNYLQYGTPNVLNEDVQEMLKPAKNSSAVIQRKHILSVLPQIKSTSFFANTNFVIIPNATPMNSATISTMTPGQITYTATSTKSNTKESRDSATASPPPAPPPPNILPTPSLELEEAEEQ [Q9H1M3] please 25.3

----------
# System: MCF7
# TEST NAME: percentage of EdU-negative (G0-arrested) nuclei per well, 72 h; higher = more G0 arrest
# TEST CONTEXT: protein concentration 0.225 µM; reference: sequence is the full UniProt precursor, the tested protein was the secreted form or ectodomain
EXPERIMENTAL READOUT: percentage of EdU-negative (%)
Numeric only. Scale: %

INSERT INTO results (sequence, experimental_readout, value_measured) VALUES
  ('MALHIHEACILLLVIPGLVTSAAISHEDYPADEGDQISSNDNLIFDDYRGKGCVDDSGFVYKLGERFFPGHSNCPCVCALDGPVCDQPECPKIHPKCTKVEHNGCCPECKEVKNFCEYHGKNYKILEEFKPSPCEWCRCEPSNEVHCVVADCAVPECVNPVYEPEQCCPVCKNGPNCFAGTTIIPAGIEVKVDECNICHCHNGDWWKPAQCSKRECQGKQTV [B2RUY7]', 'percentage of EdU-negative', 25.9),
  ('MLLEPGRGCCALAILLAIVDIQSGGCINITSSASQEGTRLNLICTVWHKKEEAEGFVVFLCKDRSGDCSPETSLKQLRLKRDPGIDGVGEISSQLMFTISQVTPLHSGTYQCCARSQKSGIRLQGHFFSILFTETGNYTVTGLKQRQHLEFSHNEGTLSSGFLQEKVWVMLVTSLVALQAL', 'percentage of EdU-negative', 28.4);

API: the following record is the query input.
Item MAAAAMAAAAGGGAGAARSLSRFRGCLAGALLGDCVGSFYEAHDTVDLTSVLRHVQSLEPDPGTPGSERTEALYYTDDTAMARALVQSLLAKEAFDEVDMAHRFAQEYKKDPDRGYGAGVVTVFKKLLNPKCRDVFEPARAQFNGKGSYGNGGAMRVAGISLAYSSVQDVQKFARLSAQLTHASSLGYNGAILQALAVHLALQGESSSEHFLKQLLGHMEDLEGDAQSVLDARELGMEERPYSSRLKKIGELLDQASVTREEVVSELGNGIAAFESVPTAIYCFLRCMEPDPEIPSAFNSLQRTLIYSISLGGDTDTIATMAGAIAGAYYGMDQVPESWQQSCEGYEETDILAQSLHRVFQKS [Q9NX46] has what recorded percentage of EdU-negative? 29.1

----------
# Test system: MCF7
# TEST NAME: percentage of EdU-negative (G0-arrested) nuclei per well, 72 h; higher = more G0 arrest
# TEST CONTEXT: protein concentration 0.0225 µM; reference: sequence is the full UniProt precursor, the tested protein was the secreted form or ectodomain
We begin with a simple list: items and their reported percentage of EdU-negative.
Entry rule: numbers only, all in %.

INSERT INTO results (sequence, unit_spec, value_measured) VALUES
  ('MLLLINVILTLWVSCANGQVKPCDFPDIKHGGLFHENMRRPYFPVAVGKYYSYYCDEHFETPSGSYWDYIHCTQNGWSPAVPCLRKCYFPYLENGYNQNYGRKFVQGNSTEVACHPGYGLPKAQTTVTCTEKGWSPTPRCIRVRTCSKSDIEIENGFISESSSIYILNKEIQYKCKPGYATADGNSSGSITCLQNGWSAQPICINSSEKCGPPPPISNGDTTSFLLKVYVPQSRVEYQCQPYYELQGSNYVTCSNGEWSEPPRCIHPCIITEENMNKNNIKLKGRSDRKYYAKTGDTIEFMCKLGYNANTSILSFQAVCREGIVEYPRCE', '%', 28);

The record that follows has no percentage of EdU-negative shown yet.
Which percentage of EdU-negative is listed for `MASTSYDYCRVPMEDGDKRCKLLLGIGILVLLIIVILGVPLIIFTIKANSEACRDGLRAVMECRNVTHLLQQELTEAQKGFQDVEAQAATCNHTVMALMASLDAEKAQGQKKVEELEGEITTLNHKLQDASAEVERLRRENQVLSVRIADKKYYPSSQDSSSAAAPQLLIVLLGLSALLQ` ? 26.3

----------
# Tested on: hTERT-HMEC
# TEST NAME: percentage of EdU-negative (G0-arrested) nuclei per well, 72 h; higher = more G0 arrest
# TEST CONTEXT: protein concentration 0.0225 µM; reference: sequence is the full UniProt precursor, the tested protein was the secreted form or ectodomain
EXPERIMENTAL READOUT: percentage of EdU-negative
Report the figure along with its unit, number first.

INSERT INTO assay_data (sequence, study_target, value_measured) VALUES
  ('MYTAIPQSGSPFPGSVQDPGLHVWRVEKLKPVPVAQENQGVFFSGDSYLVLHNGPEEVSHLHLWIGQQSSRDEQGACAVLAVHLNTLLGERPVQHREVQGNESDLFMSYFPRGLKYQEGGVESAFHKTSTGAPAAIKKLYQVKGKKNIRATERALNWDSFNTGDCFILDLGQNIFAWCGGKSNILERNKARDLALAIRDSERQGKAQVEIVTDGEEPAEMIQVLGPKPALKEGNPEEDLTADKANAQAAALYKVSDATGQMNLTKVADSSPFALELLISDDCFVLDNGLCGKIYIWKGRKANEKERQAALQVAEGFISRMQYAPNTQVEILPQGHESPIFKQFFKDWK', 'hTERT-HMEC', '5.31%');

Recorded percentage of EdU-negative of MEPLRLLILLFVTELSGAHNTTVFQGVAGQSLQVSCPYDSMKHWGRRKAWCRQLGEKGPCQRVVSTHNLWLLSFLRRWNGSTAITDDTLGGTLTITLRNLQPHDAGLYQCQSLHGSEADTLRKVLVEVLADPLDHRDAGDLWFPGESESFEDAHVEHSISRSLLEGEIPFPPTSILLLLACIFLIKILAASALWAAAWHGQKPGTHPPSELDCGHDPGYQLQTLPGLRDT [Q9NZC2] , please. 5.63%

Record: MLQLWKLVLLCGVLTGTSESLLDNLGNDLSNVVDKLEPVLHEGLETVDNTLKGILEKLKVDLGVLQKSSAWQLAKQKAQEAEKLLNNVISKLLPTNTDIFGLKISNSLILDVKAEPIDDGKGLNLSFPVTANVTVAGPIIGQIINLKASLDLLTAVTIETDPQTHQPVAVLGECASDPTSISLSLLDKHSQIINKFVNSVINTLKSTVSSLLQKEICPLIRIFIHSLDVNVIQQVVDNPQHKTQLQTLI [Q96DR5] 4.84%
